Target: T1, COVID S1 RBM Fc fusion (Antigen 2) (SARS-CoV-2, UniProt P0DTC2 437-508)
T1 construct: domain: RBM
Assay: phage ELISA
Kindly state specificity ELISA, fold over background for each of the entries shown.
Report the value in fold over background with no unit label.

Data request: // returns reported specificity ELISA, fold over background for input SARS-CoV-2 variant 1-46 (antibody, V domains shown) VH: EVQLLESGGGLVQPGGSLRLSCAASGFTFTSYAMSWVRQAPGKGLEWVSAISGSGGSTYYADSVKGRFTISRDNSKNTLYLQMNSLRAEDTAVYYCANDTSDFCFGYWIFDPWGQGTLVTVSS VL: QSALTQPASVSGSPGQSITISCTGTSSDIGSYNLVSWYQQHPGKAPKLMIYEGTKRPSGVSNRFSGSKSGNTASLTISGLQAEDEADYYCCSYAGSRTYVFGGGTKLTVL
Data returned: 0.9

Data request: Would you mind telling me what specificity ELISA, fold over background value was observed for SARS-CoV-2 variant 1-17 (antibody, V domains shown) VH: EVQLLESGGGLVQPGGSLRLSCAASGFTFSSYAMYWVRQAPGKGLEWVSAISGSAGSTYYADSVKGRFTISRDNSKNTLYLQMNSLRAEDTAVYYCARDTNDFWSGYSIFDPWGQGTLVTVSS VL: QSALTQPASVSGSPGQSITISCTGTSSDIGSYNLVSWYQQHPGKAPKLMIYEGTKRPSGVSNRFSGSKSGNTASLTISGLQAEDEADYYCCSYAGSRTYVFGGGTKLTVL ?
Data returned: 1.3

Data request: Endpoint output: specificity ELISA, fold over background of SARS-CoV-2 variant 1-21 (antibody, V domains shown) VH: EVQLLESGGGLVQPGGSLRLSCAASGFTFSSYTMSWVRQAPGKGLEWVSIISGSGGSTYYADSVKGRFTISRDNSKNTLYLQMNSLRAEDTAVYYCAREGYRDYLWYFDLWGQGTLVTVSS VL: QSALTQPASVSGSPGQSITISCTGTSSDVGSNNLVSWYQQHPGKAPKLMIYEGNKRPSGVSNRFSGSKSGNTASLTISGLQAEDEADYYCCSYAGSVVFGGGTKLTVL . Value?
Data returned: 1.4
